# assaySystem: T1, mouse GFRAL (analyte in Biacore assays) (mouse, UniProt Q6SJE0 20-349, limits assumed)
# T1 construct: injected in solution over captured antibody
# T1 sequence: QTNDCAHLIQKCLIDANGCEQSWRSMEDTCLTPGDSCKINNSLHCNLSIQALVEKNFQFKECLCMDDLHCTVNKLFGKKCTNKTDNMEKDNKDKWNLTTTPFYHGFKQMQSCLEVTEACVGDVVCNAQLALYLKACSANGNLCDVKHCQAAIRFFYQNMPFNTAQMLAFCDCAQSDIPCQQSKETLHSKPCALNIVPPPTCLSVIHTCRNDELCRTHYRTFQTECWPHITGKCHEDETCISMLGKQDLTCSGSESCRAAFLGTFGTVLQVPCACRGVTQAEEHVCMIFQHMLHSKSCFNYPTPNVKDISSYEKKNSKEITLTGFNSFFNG
# assayInfo: Biacore SPR, antibody captured, GFRAL injected
Reported koff values for the following binders.
# unit: s⁻¹ | format: bare number

Some solved cases for reference:
antibody designated 22N5 (antibody, V domains shown, mouse hybridoma monoclonal) VH: QNQLVQSGPELKKPGEIVKISCKTSGYTFTDYSMHWVKKTPGKGFKWMGWINTETGEPTYADDFKGRFAFSLETSANTAHLQITNLKNEDTATYFCVKGTLNYWGQGTTLTVSS VL: DIKMTQSPSSMYASLGERVTITCKASQDIKSYLNWFQQKPGKSPKTLIYRTKRLVDGVPSRFSGSGSGQDYSLTVSSLEYDDVGIYYCLQYVEFPLTFGDGTKLELK; 0.000943
antibody designated 5F12 (antibody, V domains shown, mouse hybridoma monoclonal; also called 5F12 Hybridoma) VH: QVQLKQSGTELVRPGASVKLSCKASGYTFTDYYINWVKQRPGQGLEWIARIYPGNGNTYHNEKFKGKATLTAEKSSSTAYMQLSSLTSEDSAVYFCAREGLYYDYDRYFDYWGQGTALTVSS VL: NIVLTQSPASLAVSLGQRATISCRASESVDTYGNSFMHWYQQKPGQPPKLLIYLASNLESGVPARFSGSGSRTDFTLTIDPVEADDAATYYCHQNNEDPPAFGGGTKLEIK; 0.0009

Continue with the next binder.
Record request: koff value, item antibody designated 2A9 (antibody, V domains shown, mouse hybridoma monoclonal) VH: EVKLVESGGGLVKPGGSLKLSCAASGFTFSTYAMSWVRQTPEKRLEWVASITSGGTTYYTDSVKGRFTISRDNARNILYLQMSSLRSEDTAMYYCARDGNFYYYGMDYWGQGTSVTVSS VL: DIVMTQSQKFMSTSVGDRVSITCKASQNVGTAVAWYQQKPGQSPKILIYSASNRFTGVPDRFTGSGSGTDFTLTISNMQSEDLADYFCQQYSSYFTFGGGTKLELK
0.0029
